test system: SK-OV-3 ovarian; experiment: NCI-60 one-dose screen, 48 h; details: 10 µM unless noted
About 83,000 compounds went through this panel and 20% of them were active in at least one assay; those are over-represented in the sample as a whole. Calls of active or inactive are those of the source. The calls were made as follows: active = growth percent below 10; inactive = the rest.
Bench note: report the call from active, inactive

Hi, sorry to bother you, what did the test record for O=[N+]([O-])c1ccc(OCCO)cc1 ?
inactive

Hi, sorry to bother you, what did the test record for COc1cccc(C(=O)NCCNc2cc(-c3cn(-c4ccccc4)nc3-c3cccc(OC)c3)ccn2)c1 ?
inactive

Hi, sorry to bother you, what did the test record for CC(=O)[C@@H]1CC[C@]2(COS(=O)(=O)c3ccc(C)cc3)CC[C@]3(C)[C@H](CC[C@@H]4[C@@]5(C)CCCNC(C)(C)[C@@H]5CC[C@]43C)[C@@H]12 ?
inactive

Next:
Hi, sorry to bother you, what did the test record for O=C(CCc1nnc(CN(c2ccccc2)c2ccccc2)o1)c1nc2ccccc2[nH]1 ?
inactive
